System: Staphylococcus aureus
Protocol: Inhibitory activity of the aminoglycoside on Staphylococcus aureus IF-2 binding to fMet-tRNA (fMet)
Type: functional
Quantity kind: pIC50
Just the number, please; pIC50 means minus log10 of the concentration in mol/L.

// returns reported pIC50 for input CN[C@@H]1[C@@H](O)[C@@H](O[C@@H]2[C@@H](O)[C@H](O[C@H]3OC(CN)=CC[C@H]3N)[C@@H](N)C[C@H]2N)OC[C@]1(C)O
8.15

====

System: Staphylococcus aureus
Protocol: Denaturation rate constant of IF2 in the presence of aminoglycoside
Quantity kind: Denaturation rate constant (min⁻¹)
Record the value in min⁻¹, omitting the unit from your answer.

* NC[C@@H]1O[C@@H](O[C@H]2[C@H](O)[C@@H](O[C@H]3O[C@H](CO)[C@@H](O)[C@H](N)[C@H]3O)[C@H](N)C[C@@H]2N)[C@@H](O)[C@H](O)[C@H]1O [KANAMYCIN A] | 0.092
* NCC[C@H](O)C(=O)N[C@@H]1C[C@H](N)[C@@H](O[C@H]2O[C@H](CN)[C@@H](O)[C@H](O)[C@H]2O)[C@H](O)[C@H]1O[C@H]1O[C@H](CO)[C@@H](O)[C@H](N)[C@H]1O [AMIKACIN] | 0.093
* CN[C@@H]1[C@H](O[C@H]2[C@H](O[C@H]3[C@H](O)[C@@H](O)[C@H](N=C(N)N)[C@@H](O)[C@@H]3N=C(N)N)O[C@@H](C)[C@]2(O)C=O)O[C@@H](CO)[C@H](O)[C@H]1O [STREPTOMYCIN] | 0.094
* NC[C@@H]1O[C@H](O[C@H]2[C@@H](O)[C@H](O[C@@H]3[C@@H](O)[C@H](N)C[C@H](N)[C@H]3O[C@H]3O[C@H](CN)[C@@H](O)[C@H](O)[C@H]3N)O[C@@H]2CO)[C@H](N)[C@@H](O)[C@@H]1O [FRAMYCETIN] | 0.095

Next:
Tell me the measured Denaturation rate constant of CN[C@@H]1C[C@H](N)[C@@H](O)[C@H](O[C@H]2O[C@H](CO)[C@H](O)[C@@H]3O[C@@]4(O[C@@H]23)O[C@H]([C@H](N)CO)[C@H](O)[C@H](O)[C@H]4O)[C@H]1O [HYGROMYCIN] , please.
0.096

====

Test system: Staphylococcus aureus
Protocol: Inhibitory activity against the displacement of Picogreen from fMet-tRNA(fMet) by the aminoglycoside
Type: functional
Quantity kind: IC50 (nM)
Write it as a number; the unit nM goes unstated.

Reported IC50, compound CN[C@@H]1[C@@H](O)[C@@H](O[C@@H]2[C@@H](O)[C@H](O[C@H]3OC(CN)=CC[C@H]3N)[C@@H](N)C[C@H]2N)OC[C@]1(C)O : ____
7

====

Item-by-item account of inhibition
Test system: Staphylococcus aureus
Protocol: Maximal inhibition against the displacement of Picogreen from fMet-tRNA(fMet) by the aminoglycoside
Kindly provide the numeric value in % only, without the unit symbol.

Worked examples follow.
* NC[C@@H]1O[C@@H](O[C@H]2[C@H](O)[C@@H](O[C@H]3O[C@H](CO)[C@@H](O)[C@H](N)[C@H]3O)[C@H](N)C[C@@H]2N)[C@@H](O)[C@H](O)[C@H]1O [KANAMYCIN A] | 92
* CN[C@@H]1C[C@H](N)[C@@H](O)[C@H](O[C@H]2O[C@H](CO)[C@H](O)[C@@H]3O[C@@]4(O[C@@H]23)O[C@H]([C@H](N)CO)[C@H](O)[C@H](O)[C@H]4O)[C@H]1O [HYGROMYCIN] | 81
* NCC[C@H](O)C(=O)N[C@@H]1C[C@H](N)[C@@H](O[C@H]2O[C@H](CN)[C@@H](O)[C@H](O)[C@H]2O)[C@H](O)[C@H]1O[C@H]1O[C@H](CO)[C@@H](O)[C@H](N)[C@H]1O [AMIKACIN] | 85
* CN[C@@H]1[C@H](O[C@H]2[C@H](O[C@H]3[C@H](O)[C@@H](O)[C@H](N=C(N)N)[C@@H](O)[C@@H]3N=C(N)N)O[C@@H](C)[C@]2(O)C=O)O[C@@H](CO)[C@H](O)[C@H]1O [STREPTOMYCIN] | 95

Now look at this one.
Which inhibition value belongs to NC[C@@H]1O[C@H](O[C@H]2[C@@H](O)[C@H](O[C@@H]3[C@@H](O)[C@H](N)C[C@H](N)[C@H]3O[C@H]3O[C@H](CN)[C@@H](O)[C@H](O)[C@H]3N)O[C@@H]2CO)[C@H](N)[C@@H](O)[C@@H]1O [FRAMYCETIN] ?
100

====

System: Staphylococcus aureus
Protocol: Maximal inhibition of the aminoglycoside on Staphylococcus aureus IF-2 binding to fMet-tRNA(fMet)
# inhibition values compiled below
Respond numerically; units are % and should not be typed.

Recorded inhibition for CN[C@@H]1[C@H](O[C@H]2[C@H](O[C@H]3[C@H](O)[C@@H](O)[C@H](N=C(N)N)[C@@H](O)[C@@H]3N=C(N)N)O[C@@H](C)[C@]2(O)C=O)O[C@@H](CO)[C@H](O)[C@H]1O [STREPTOMYCIN] with Staphylococcus aureus, please?
43

Please state recorded inhibition (tested on Staphylococcus aureus) of NCC[C@H](O)C(=O)N[C@@H]1C[C@H](N)[C@@H](O[C@H]2O[C@H](CN)[C@@H](O)[C@H](O)[C@H]2O)[C@H](O)[C@H]1O[C@H]1O[C@H](CO)[C@@H](O)[C@H](N)[C@H]1O [AMIKACIN]
43

Please provide the recorded inhibition for CN[C@@H]1C[C@H](N)[C@@H](O)[C@H](O[C@H]2O[C@H](CO)[C@H](O)[C@@H]3O[C@@]4(O[C@@H]23)O[C@H]([C@H](N)CO)[C@H](O)[C@H](O)[C@H]4O)[C@H]1O [HYGROMYCIN] , tested on Staphylococcus aureus.
84

Write down the reported inhibition of CNC1C(O)C(OC2C(N)CC(N)C(OC3OC(CN)CCC3N)C2O)OCC1(C)O (stereo unspecified) [GENTAMICIN C1A] , test system: Staphylococcus aureus.
66

Item NC[C@@H]1O[C@@H](O[C@H]2[C@H](O)[C@@H](O[C@H]3O[C@H](CO)[C@@H](O)[C@H](N)[C@H]3O)[C@H](N)C[C@@H]2N)[C@@H](O)[C@H](O)[C@H]1O [KANAMYCIN A] with Staphylococcus aureus - inhibition?
61

Can you look up inhibition on Staphylococcus aureus for NC[C@@H]1O[C@H](O[C@H]2[C@@H](O)[C@H](O[C@@H]3[C@@H](O)[C@H](N)C[C@H](N)[C@H]3O[C@H]3O[C@H](CN)[C@@H](O)[C@H](O)[C@H]3N)O[C@@H]2CO)[C@H](N)[C@@H](O)[C@@H]1O [FRAMYCETIN] ?
76

====

Protocol: Inhibitory activity against the displacement of Picogreen from fMet-tRNA(fMet) by the aminoglycoside
Set-up: species or system Staphylococcus aureus
Quantity kind: pIC50
Scale for pIC50: -log10 of concentration given in mol/L; no unit attached.

• NC[C@@H]1O[C@H](O[C@H]2[C@@H](O)[C@H](O[C@@H]3[C@@H](O)[C@H](N)C[C@H](N)[C@H]3O[C@H]3O[C@H](CN)[C@@H](O)[C@H](O)[C@H]3N)O[C@@H]2CO)[C@H](N)[C@@H](O)[C@@H]1O [FRAMYCETIN] = 8.05
• NC[C@@H]1O[C@@H](O[C@H]2[C@H](O)[C@@H](O[C@H]3O[C@H](CO)[C@@H](O)[C@H](N)[C@H]3O)[C@H](N)C[C@@H]2N)[C@@H](O)[C@H](O)[C@H]1O [KANAMYCIN A] = 7.62
• CN[C@@H]1[C@H](O[C@H]2[C@H](O[C@H]3[C@H](O)[C@@H](O)[C@H](N=C(N)N)[C@@H](O)[C@@H]3N=C(N)N)O[C@@H](C)[C@]2(O)C=O)O[C@@H](CO)[C@H](O)[C@H]1O [STREPTOMYCIN] = 5.75
• CN[C@@H]1C[C@H](N)[C@@H](O)[C@H](O[C@H]2O[C@H](CO)[C@H](O)[C@@H]3O[C@@]4(O[C@@H]23)O[C@H]([C@H](N)CO)[C@H](O)[C@H](O)[C@H]4O)[C@H]1O [HYGROMYCIN] = 6.56

// next item, pIC50 requested
Form field: reported pIC50 of NCC[C@H](O)C(=O)N[C@@H]1C[C@H](N)[C@@H](O[C@H]2O[C@H](CN)[C@@H](O)[C@H](O)[C@H]2O)[C@H](O)[C@H]1O[C@H]1O[C@H](CO)[C@@H](O)[C@H](N)[C@H]1O [AMIKACIN]
6.80
